System: Canis familiaris
test summary: In vivo percent change in renal blood flow at 30 ug/Kg/min.
Assay type: functional, Canis lupus familiaris, Kidney
Square brackets hold non-standard residues; d marks the D form. Peptide text beside a SMILES is read from it. * marks the point of attachment. ξ: configuration not given here. Butanoyl(4-(4-HOPh)) = O=C(CCCc1ccc(O)cc1)*; ξαMeY = CC(N)(Cc1ccc(O)cc1)C(=O)O; ξαMeF = CC(N)(Cc1ccccc1)C(=O)O; Bz = O=C(c1ccccc1)*
Give Change for every item shown.
// note: answer is a bare numeric in %

Lab book: Change of CC(Cc1ccccc1)(NC(=O)[C@@H]1CCCN1C(=O)CCCc1ccc(O)cc1)C(=O)NCCCN.Cl (some centres not stated) noted as 4.3

Lab book: Change of CC(Cc1ccccc1)(NC(=O)[C@@H]1CCCN1C(=O)c1ccccc1)C(=O)N1CCC[C@H]1C(=O)O (some centres not stated) (Bz-Pro-[ξαMeF]-Pro-OH) noted as 0

Lab book: Change of CC(Cc1ccc(O)cc1)(NC(=O)[C@@H]1CCCN1C(=O)CCCc1ccc(O)cc1)C(=O)NCC(=O)N1CCC[C@H]1C(=O)O (some centres not stated) ({Butanoyl(4-(4-HOPh))}-P[ξαMeY]GP-OH) noted as 0.5

Lab book: Change of CC(Cc1ccc(O)cc1)(NC(=O)[C@@H]1CCCN1C(=O)CCCc1ccc(O)cc1)C(=O)NCCCN.Cl (some centres not stated) noted as 3.5

Lab book: Change of COc1ccc(CC(C)(NC(=O)[C@@H]2CCCN2C(=O)CCCc2ccc(O)cc2)C(=O)N[C@@H](CCCN=C(N)N)C(=O)O)cc1OC (some centres not stated) noted as 18

Lab book: Change of CC(Cc1ccccc1)(NC(=O)[C@@H]1CCCN1C(=O)CCCc1ccc(O)cc1)C(=O)NCC(=O)N1CCC[C@H]1C(=O)O (some centres not stated) ({Butanoyl(4-(4-HOPh))}-P[ξαMeF]GP-OH) noted as 16

Lab book: Change of CC(Cc1ccccc1)(NC(=O)[C@@H]1CCCN1)C(=O)NCCCN.Cl.Cl (some centres not stated) noted as 1
